Quick list: Bliss excess per entry.
# Test system: A375 (Melanoma);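 also: after 72 h of two-drug dosing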
# experiment-notes: Bliss excess, mean over the matrix (fraction); higher = more synergy
Hey, just send me the number, nothing else.

[
  {
    "compound": "COc1nnc2ccc(N3CCC(c4ccc(OCCN5CCN(C)C(=O)[C@H]5C)cc4)CC3)nn12 [AZD5153] + C=CCn1c(=O)c2cnc(Nc3ccc(N4CCN(C)CC4)cc3)nc2n1-c1cccc(C(C)(C)O)n1 [AZD1775] (first compound max 1 µM, partner max 1 µM)",
    "Bliss excess": -0.0212
  }
]

Respond only with Bliss excess recorded for Cc1c2c(nn1C)CSCc1cc(n(C)n1)CSc1cc(c3ccccc3c1)OCCCc1c(C(=O)O)n(C)c3c-2c(Cl)ccc13 [AZD5991] + C[C@@H](Nc1cc(F)cc(F)c1)c1cc(C(=O)N(C)C)cc2c(=O)cc(N3CCOCC3)oc12 [AZD8186] (first compound max 1 µM, 7x7, partner max 3 µM) -0.0124

Respond only with Bliss excess recorded for C[C@@H](c1ccc2nccn2c1)n1nnc2ncc(-c3cnn(C)c3)nc21 [Savolitinib] + CC1(C)CCC(CN2CCN(c3ccc(C(=O)NS(=O)(=O)c4ccc(NCC5CCOCC5)c([N+](=O)[O-])c4)c(Oc4cnc5[nH]ccc5c4)c3)CC2)=C(c2ccc(Cl)cc2)C1 [Venetoclax] (first compound max 1 µM, 7x7, partner max 1 µM) -0.0463

Respond only with Bliss excess recorded for CC1(C)CCC(CN2CCN(c3ccc(C(=O)NS(=O)(=O)c4ccc(NCC5CCOCC5)c([N+](=O)[O-])c4)c(Oc4cnc5[nH]ccc5c4)c3)CC2)=C(c2ccc(Cl)cc2)C1 [Venetoclax] + C1CN(CCC1(C(=O)N[C@@H](CCO)C2=CC=C(C=C2)Cl)N)C3=NC=NC4=C3C=CN4 [Capivasertib] (first compound max 1 µM, 7x7, partner max 3 µM) -0.0463
